Where do these numbers come from? They come from paper PMC10920890.

# target desc: RamR (Salmonella enterica, UniProt Q8ZR43, K63T/L66M/C134D/S137G)
# Sequence (Q8ZR43 whole entry K63T/L66M/C134D/S137G): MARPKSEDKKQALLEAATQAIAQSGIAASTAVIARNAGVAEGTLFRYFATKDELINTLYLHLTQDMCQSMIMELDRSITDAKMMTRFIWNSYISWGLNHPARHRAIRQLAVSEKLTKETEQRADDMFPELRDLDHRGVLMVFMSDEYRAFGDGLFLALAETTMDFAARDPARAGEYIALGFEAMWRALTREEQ
# study conditions: variant 4NB2.1 (4NB2); LB medium, 37 °C; whole-cell biosensor
property name: pEC50
Reminder that pEC50 means the negative base-10 logarithm of the concentration expressed in mol/L.

Prompt: Report pEC50 for COc1ccc(CNCCc2ccc(O)cc2)cc1O please.
Response: 4.70
